# EXPERIMENT: in vitro
# Type: in vitro ADME
# ASSAY_CONTEXT: human, Caco-2

COMPOUND	Papp, ×10⁻⁶ cm/s
CC(C)NCC(O)COc1cccc2ccccc12 (stereo not shown)	16
